# GI50 per record follows
# Test system: HCT-116
# assay summary: Cytotoxicity against colon HCT116 human cancer cell line.
# Type: functional
value type: GI50

Cn1c2c(c3ccccc3c1=O)C(=O)c1cc(OCc3ccccc3)c(OCc3ccccc3)cc1-2
> 100 µM
COc1cc2c3c(n(CCCCO)c(=O)c2cc1OC)-c1cc2c(cc1C3=O)OCO2
1.4 µM
CC[n+]1cc2cc(OC)c(OC)cc2c2c1-c1cc3c(cc1C2)OCO3
13 µM
C=CCN1C(=O)c2cc(OC)c(OC)cc2[C@H]2C(=O)c3cc4c(cc3[C@H]21)OCO4
0.34 µM
CCn1c2c(c3cc(OC)c(OC)cc3c1=O)C(=O)c1cc3c(cc1-2)OCO3
2.6 µM
CCCCn1c2c(c3ccccc3c1=O)C(=O)c1cc3c(cc1-2)OCO3
2.9 µM
COc1ccc(-n2c3c(c4cc(OC)c(OC)cc4c2=O)C(=O)c2cc4c(cc2-3)OCO4)cc1
> 100 µM
COc1cc2c3c(n(C)c(=O)c2cc1OC)-c1cc(OC)c(OC)c(OC)c1C3=O
> 100 µM
COc1cc2c(cc1OC)[C@H]1C(=O)c3cc4c(cc3[C@H]1N(C)C2=O)OCO4
2 µM
O=C1c2ccccc2-c2c1c1ccccc1c(=O)n2CCCCCO
3.9 µM
COc1cc2c3c(n(C)c(=O)c2cc1OC)-c1cc2c(cc1C3=O)OCO2
35 µM
CCN1Cc2cc(OC)c(OC)cc2[C@@H]2[C@H]1c1cc3c(cc1[C@@H]2O)OCO3
35 µM
CCN1C(=O)c2cc(OC)c(OC)cc2[C@H]2C(=O)c3cc4c(cc3[C@H]21)OCO4
0.29 µM
O=C1c2ccccc2-c2c1c1ccccc1c(=O)n2CCCCO
3.2 µM
COc1cc2c3c(n(Cc4ccccc4)c(=O)c2cc1OC)-c1cc2c(cc1C3=O)OCO2
> 100 µM
O=C1c2ccccc2-c2c1c1ccccc1c(=O)n2C1CC1
> 100 µM
CCCCn1c2c(c3cc(OC)c(OC)cc3c1=O)C(=O)c1cc3c(cc1-2)OCO3
45 µM
Cn1c2c(c3ccccc3c1=O)C(=O)c1cc3c(cc1-2)OCO3
54 µM
CCN1C(=O)c2cc(OC)c(OC)cc2[C@@H]2[C@H]1c1cc3c(cc1[C@@H]2O)OCO3
> 100 µM
O=C(O)CCCn1c2c(c3ccccc3c1=O)C(=O)c1ccccc1-2
40 µM
